System: SA 1199‐B (norA overexpressing)
MEASUREMENT_NOTES: microbe, parasite or virus in culture
Assay type: cell-based, Staphylococcus aureus
EXPERIMENTAL_PARAMETERS: Staphylococcus aureus
Measured log10(MIC), listed per entry.
MEASURED_PARAMETER: log10(MIC) (log10 of the value in µg/mL)

COMPOUND | log10(MIC)
CCCCNc1ccc2nc3cc(NCCCC)c(N)cc3[n+](CCC)c2c1 [5a2] | 0.30
CCCCNc1cc2nc3ccc(NCCC)cc3[n+](CCC)c2cc1N [5c1] | 0.30
CCCCCCCCNc1ccc2nc3cc(NCCC)c(N)cc3[n+](CCCCCCCC)c2c1 [5e1] | 1.20
CCCCNc1ccc2nc3cc(NCCC)c(N)cc3[n+](CCC)c2c1 [5a1] | 0.30
CCCNc1ccc2nc3cc(NCCOC)c(N)cc3[n+](CCC)c2c1 [5c2] | 0.90
CCCCCCCC[n+]1c2cc(NCCCC)ccc2nc2cc(NCCOC)c(N)cc21 [5b4] | 0.00
CCn1cc(C(=O)O)c(=O)c2cc(F)c(N3CCNCC3)cc21 [NOR, norfloxacin, reference compound] | 1.51
CCCCCCCCNc1ccc2nc3cc(NC(C)(C)C)c(N)cc3[n+](CCCCCCCC)c2c1 [5e2] | 0.90
CCCCNc1ccc2nc3cc(NCCC)c(N)cc3[n+](CCCC)c2c1 [5d1] | 1.20
CCCCCCCCNc1ccc2nc3cc(NCCCCCCCC)c(N)cc3[n+](CCCCCCCC)c2c1 [5e3] | 1.81
CCCCCCCCNc1cc2nc3ccc(NCCCC)cc3[n+](CCC)c2cc1N [5a3] | 1.81

---

Test system: Staphylococcus aureus ATCC 25923 (Reference, basal)
Mark Condition met only when MIC stays strictly below 4 µg/mL. Values equal to the cut-off are Condition not met.

COMPOUND | GROUP_LABEL
CCCCCCCCNc1cc2nc3ccc(NCCCC)cc3[n+](CCC)c2cc1N [5a3] | Condition not met
CCCCNc1cc2nc3ccc(NCCC)cc3[n+](CCC)c2cc1N [5c1] | Condition met
CCCCNc1ccc2nc3cc(NCCOC)c(N)cc3[n+](CCC)c2c1 [5a4] | Condition met
CCCCCCCCNc1ccc2nc3cc(NC(C)(C)C)c(N)cc3[n+](CCCCCCCC)c2c1 [5e2] | Condition not met
CCCCNc1ccc2nc3cc(NCCCC)c(N)cc3[n+](CCCC)c2c1 [5d2] | Condition met
CCCCCCCCNc1cc2nc3ccc(NCCCC)cc3[n+](CCCCCCCC)c2cc1N [5b3] | Condition not met
CCCCCCCCNc1ccc2nc3cc(NCCCCCCCC)c(N)cc3[n+](CCCCCCCC)c2c1 [5e3] | Condition not met
CCn1cc(C(=O)O)c(=O)c2cc(F)c(N3CCNCC3)cc21 [NOR, norfloxacin, reference compound] | Condition met

---

MEASUREMENT_NOTES: In-vitro cytotoxicity test, Neutral Red uptake
Format: cell-based, Human
EXPERIMENTAL_PARAMETERS: human, HaCaT keratinocytes, 0.5 µg/ml, 24 hours; read-out: Cell viability (% as compared to the negative control), replicates
Protocol: Method: The in-vitro cytotoxicity test assessed cell viability based on Neutral Red uptake, a dye that accumulates in lysosomes and decreases in response to membrane damage. HaCaT keratinocytes were cultured in DMEM with 10% calf serum and incubated at 37°C, 5% CO₂. […] Optical density (OD540) was measured using a fluorescence reader, and IC50 values were calculated using Phototox Version 2.0, comparing treated wells to untreated controls.^[10]

COMPOUND | UNIT_DESCRIPTOR | viability at 24 h, 0.5 µg/ml
CCCCNc1ccc2nc3cc(NCCOC)c(N)cc3[n+](CCC)c2c1 [5a4] | % | 37.3

---

MEASUREMENT_NOTES: In-vitro cytotoxicity test, Neutral Red uptake
Type: cell-based, Human
EXPERIMENTAL_PARAMETERS: human, HaCaT keratinocytes, 0.025 µg/ml, 24 hours; read-out: Cell viability (% as compared to the negative control), replicates

SMILES_STRING | viability at 24 h, 0.025 µg/ml, %
CCCCNc1ccc2nc3cc(NCCOC)c(N)cc3[n+](CCC)c2c1 | 80
